Experiment: growth rescue of sdo1-depleted yeast, primary screen, S. cerevisiae, bone marrow failure model (AID 817);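 note: z-score against mean and SD of all compound wells on the same plate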
Details: S. cerevisiae sdo1-depleted JHY4D growth rescue, OD600; measured here: growth rescue at 24 h; at 10 µM; stronger effect = higher value; pdr5 snq2 efflux-pump mutant strain
The campaign covered roughly 140,000 compounds. About 300 (0.21%) were called active. Only a selection was taken, and actives are over-represented in it overall.
# z-score per entry
Reply: number alone, nothing else.

compound=COC(=O)c1cc(C(=O)N(Cc2ccccc2)c2ccccn2)cc([N+](=O)[O-])c1 experimental_value=-0.08
compound=O=C(O)c1ccc(N=NN2CCOCC2)cc1 experimental_value=-0.59
compound=CN(C)/C(=N\OC(=O)c1ccccc1)c1nonc1N experimental_value=0.24
compound="CCC1CCCCN1C(=S)Nc1ccc(C(C)=O)cc1 (stereo not given)" experimental_value=-0.44
compound=O=S(=O)(/N=C(/Nc1ccccn1)c1ccccc1)c1ccc(Cl)cc1 experimental_value=4.98

Inquiry: Please report the recorded z-score for N#Cc1ccccc1NC(=O)COc1c(Br)cc(Br)c2cccnc12 .
Reply text: 2.32

Inquiry: Ok, now CCCC1OC23CCCCC2C(C#N)(C#N)C1(C#N)C(=N)O3 (stereo not given)
Reply text: 0.9

Inquiry: Ok, now Cc1ccc(S/C(=N\S(=O)(=O)c2ccc(Cl)cc2)c2ccccc2)cc1
Reply text: -1.13

Inquiry: Ok, now CC1(C)C=C2[C@H]3CC[C@@H]4[C@@]5(C)CCC(=O)C(C)(C)[C@@H]5CC[C@@]4(C)[C@]3(C)CC[C@@]2(C(=O)O)CC1
Reply text: -0.53

Inquiry: Ok, now CCc1nnc(NC(=O)[C@@H](NC(=O)c2cccc(C)c2)C(C)C)s1
Reply text: -0.75
